Data origin, for the record: patent US20200024330A1

biological target: HIV-1 JR-CSF Env I414A (HIV-1 (isolate JR-CSF)) (UniProt P20871); assay: cell-based or functional assay
QUANTITY: Fold IC50 increase relative to wild-type (fold)
The reply should be a number in fold, with the unit left off.

Please report the recorded Fold IC50 increase relative to wild-type for PGT-130 (antibody, V domains shown) VH: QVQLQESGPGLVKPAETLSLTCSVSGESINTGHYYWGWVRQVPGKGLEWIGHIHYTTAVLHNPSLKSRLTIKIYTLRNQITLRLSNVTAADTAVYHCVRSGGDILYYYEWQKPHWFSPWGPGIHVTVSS VL: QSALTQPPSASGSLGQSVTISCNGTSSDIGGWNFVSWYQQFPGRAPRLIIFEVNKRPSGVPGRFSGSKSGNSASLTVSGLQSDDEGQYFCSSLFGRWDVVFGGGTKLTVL .
0.7

Please report the recorded Fold IC50 increase relative to wild-type for PGT-135 (antibody, V domains shown) VH: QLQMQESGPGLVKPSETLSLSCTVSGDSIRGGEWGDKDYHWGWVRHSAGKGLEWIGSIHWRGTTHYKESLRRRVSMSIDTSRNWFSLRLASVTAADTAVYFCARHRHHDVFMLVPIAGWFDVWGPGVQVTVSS VL: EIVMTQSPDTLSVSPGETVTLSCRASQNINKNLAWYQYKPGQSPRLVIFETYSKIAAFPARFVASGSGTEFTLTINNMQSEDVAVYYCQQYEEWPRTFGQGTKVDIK .
1.2

Please report the recorded Fold IC50 increase relative to wild-type for PGT-128 (antibody, V domains shown) VH: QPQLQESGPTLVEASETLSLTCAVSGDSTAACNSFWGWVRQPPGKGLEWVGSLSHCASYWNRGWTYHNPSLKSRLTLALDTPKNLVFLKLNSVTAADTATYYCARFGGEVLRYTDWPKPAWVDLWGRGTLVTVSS VL: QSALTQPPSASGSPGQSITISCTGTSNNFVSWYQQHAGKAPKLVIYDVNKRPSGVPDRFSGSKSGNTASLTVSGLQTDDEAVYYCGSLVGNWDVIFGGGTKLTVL .
1.4
